# Giant foxtail plant response rating per entry
tested on: giant foxtail; test: Test B pre/postemergence giant foxtail; format: in vivo, Setaria faberii; details: Preemergence, Rate 500 g/ha; scale of 0 to 10 where 0 is no effect and 10 is complete control
Respond numerically, and do not add a unit to the figure.

>>> value_measured("CC(=O)OCCCCn1c(=O)on(C(=O)N(c2ccc(F)cc2F)C(C)C)c1=O")
8
>>> value_measured("CC(C)N(C(=O)n1oc(=O)n(CCC2OCCCO2)c1=O)c1ccc(Cl)cc1")
10
>>> value_measured("CCCCCn1c(=O)on(C(=O)N(c2ccccc2)C(C)C)c1=O")
10
>>> value_measured("CC(C)N(C(=O)n1oc(=O)n(C2CCC2)c1=O)c1ccc(F)cc1F")
10
>>> value_measured("CC(C)N(C(=O)n1oc(=O)n(CCc2ccccc2)c1=O)c1ccccc1")
9

Continue with the next molecule.
Report Giant foxtail plant response rating on giant foxtail for this entry: COCCOCn1c(=O)on(C(=O)N(c2ccc(Cl)cc2)C(C)C)c1=O
10

* * *

test system: wild oat; experiment: Test B pre/postemergence wild oat; type: in vivo, Avena fatua; conditions: Preemergence, Rate 250 g/ha; scale of 0 to 10 where 0 is no effect and 10 is complete control
property_measured: Wild oats plant response rating
Respond numerically, and do not add a unit to the figure.

>>> value_measured("CC(C)N(C(=O)n1oc(=O)n(C)c1=O)c1ccc(F)cc1F")
10

Read off the recorded Wild oats plant response rating for CCc1cccc(CC)c1-n1c(=O)on(C(=O)N(c2ccc(F)cc2)C(C)C)c1=O
0

Read off the recorded Wild oats plant response rating for CC1CC1n1c(=O)on(C(=O)N(c2ccc(F)cc2)C(C)C)c1=O (stereo not shown)
3

Read off the recorded Wild oats plant response rating for CCOC(=O)C(C)N(C(=O)n1oc(=O)n(-c2ccccc2C)c1=O)c1ccc(F)cc1 (stereo not shown)
0

Read off the recorded Wild oats plant response rating for CC(C)N(C(=O)n1oc(=O)n(N2C(C)CCCC2C)c1=O)c1ccc(F)cc1F (stereo not shown)
0

Read off the recorded Wild oats plant response rating for CC(C)N(C(=O)n1oc(=O)n(CC2CCCO2)c1=O)c1ccc(F)cc1 (stereo not shown)
9

* * *

# Bedstraw plant response rating per entry
System: bedstraw
Assay: Test B pre/postemergence bedstraw
Format: in vivo, Galium aparine
Settings: Rate 500 g/ha, Postemergence; scale 0 to 10, 0 no effect, 10 complete control
Experimental: […] At the same time, these crop and weed species were also treated with postemergence applications of test chemicals formulated in the same manner. […] Treated plants and controls were maintained in a greenhouse for twelve to sixteen days, after which all species were compared to controls and visually evaluated. […]
Respond numerically, and do not add a unit to the figure.

>>> value_measured("Cc1ccccc1Cn1c(=O)on(C(=O)N(C)c2ccccc2)c1=O")
0

Read off the recorded Bedstraw plant response rating for CCN(Cc1ccccc1)C(=O)n1oc(=O)n(-c2ccccc2C)c1=O
0

Read off the recorded Bedstraw plant response rating for CC(C)N(C(=O)n1oc(=O)n(Cc2ccccc2)c1=O)c1ccc(Cl)cc1
7

Read off the recorded Bedstraw plant response rating for CC(C)N(C(=O)n1oc(=O)n(Cc2ccccc2Cl)c1=O)C1=CCCCC1
5

* * *

system: soybean; test: Test B pre/postemergence soybean; assay type: in vivo, Glycine max; details: Rate 250 g/ha, Postemergence; scale of 0 to 10 where 0 is no effect and 10 is complete control
# Plant response rating, Soybean per entry
Respond numerically, and do not add a unit to the figure.

Consider the worked cases shown below.
>>> value_measured("CCC=CCn1c(=O)on(C(=O)N(c2ccc(F)cc2F)C(C)C)c1=O")
5
>>> value_measured("CC1Cc2cccc(-n3c(=O)on(C(=O)N(c4ccc(F)cc4)C(C)C)c3=O)c2O1 (stereo not drawn)")
3
>>> value_measured("CCCCCn1c(=O)on(C(=O)N(c2ccccc2)C(C)C)c1=O")
0
>>> value_measured("CCC(=O)Cn1c(=O)on(C(=O)N(c2ccc(F)cc2F)C(C)C)c1=O")
3
>>> value_measured("CCOC(=O)C=C(Cn1c(=O)on(C(=O)N(c2ccc(Cl)cc2)C(C)C)c1=O)OCC")
2

Continue with the next compound.
Read off the recorded Plant response rating, Soybean for Cc1cccc(C(C)(C)C)c1-n1c(=O)on(C(=O)N(c2ccccc2)C(C)C)c1=O
3

Where do these numbers come from? They come from patent US6737383B1.
